Study system: human KHK-C (Homo sapiens (Human))
Sequence (P50053 whole entry): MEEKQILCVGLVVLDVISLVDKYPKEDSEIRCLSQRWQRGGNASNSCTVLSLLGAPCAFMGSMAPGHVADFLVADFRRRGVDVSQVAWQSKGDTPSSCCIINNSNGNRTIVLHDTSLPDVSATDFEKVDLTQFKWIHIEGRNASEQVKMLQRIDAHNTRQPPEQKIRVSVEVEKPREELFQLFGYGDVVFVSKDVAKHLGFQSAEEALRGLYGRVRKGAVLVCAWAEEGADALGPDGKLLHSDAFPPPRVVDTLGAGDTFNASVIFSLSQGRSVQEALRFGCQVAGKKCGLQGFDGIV
Assay protocol: KHK Biochemical Assay (IC50), ADP-Glo, KHK-C
Test parameters: average of at least two separate assays
Measure: pIC50
One number for each entry, as −log10 of the molar value.

Answered cases to consult:
C[C@H]1[C@H](F)CN1c1nc(-c2ccc3c(c2)S(=O)(=O)C[C@@H]3NS(C)(=O)=O)c2c(n1)C(F)(F)CC2 (single isomer, unassigned) [Example 679] ... 10.00
C[C@H]1[C@H](F)CN1c1nc(-c2ccc3c(c2)COC[C@@H]3NS(C)(=O)=O)c2c(n1)C(F)(F)CC2 [Example 582] ... 9.10

Can you give me pIC50 for all of these, one by one?
1. CC1CCC1c1nc2c(c(-c3ccc(C(N)=O)cc3)n1)CCC2 (centres unmarked) [Example 501]
2. NC1(c2ccc(-c3nc(N4CC[C@@H]4C(F)(F)F)nc4c3CCC4(F)F)cc2F)COC1 [Example 589]
3. C[C@H]1[C@H](F)CN1c1nc(-c2ccc3c(c2)OC[C@@H]3NS(C)(=O)=O)c2c(n1)C(F)(F)CC2 [Example 523]
4. C[C@H]1CCN1c1nc(-c2ccc3c(c2)OCC3NS(C)(=O)=O)c2c(n1)C(F)(F)CC2 (some centres unmarked) [Example 758]
5. CS(=O)(=O)NC[C@H]1CCN1c1nc2c(c(-c3ccc(C(N)=O)cc3)n1)CCC2 [Example 457]
6. C[C@H]1[C@H](O)CN1c1nc(-c2ccc(C(=O)NCC#N)cc2)c2c(n1)C(F)(F)CC2 [Example 737]
7. C[C@H]1[C@H](O)CN1c1nc(-c2ccc3c(c2)OCCC32COC(=O)N2)c2c(n1)C(F)(F)CC2 (some centres unmarked) [Example 553]

**Result**
1: 6.67; 2: 8.85; 3: 9.15; 4: 9.30; 5: 6.02; 6: 8.01; 7: 8.80

Would you mind giving pIC50 for every compound in the list below?
1. C[C@H]1CCN1c1nc2c(c(-c3cc(Cl)cc([C@H]4C[C@@H]4C(=O)O)c3)n1)CCC2 [Example 443]
2. COc1cc(-c2nc(N3C[C@@H](O)[C@@H]3C)nc3c2CCC3(F)F)cc2c1[C@H](NS(C)(=O)=O)CO2 (single isomer, unassigned) [Example 478]

**Result**
[8.38, 8.54]

Each compound below has a recorded value; state its pIC50.
1. C[C@H]1[C@H](O)CN1c1nc(-c2ccc3c(c2)OCCNS3(=O)=O)c2c(n1)C(F)(F)CC2 [Example 500]
2. C[C@H]1CCN1c1nc2c(c(-c3cccc([C@@H]4[C@@H](C(=O)O)C4(C)C)c3)n1)CCC2 [Example 435]
3. C[C@H]1[C@H](F)CN1c1nc(-c2cccc(S(C)(=N)=O)c2)c2c(n1)C(F)(F)CC2 (some centres unmarked) [Example 710]

**Result**
7.31
8.27
8.14

###

Study system: KHK-C expressed in NRK-52E cells (Homo sapiens (Human), UniProt P50053)
Assay protocol: KHK-C Cell-based Assay (EC50), NRK CTG, fructose-mediated ATP-depletion
pEC50: −log10 of the molar value.
Quick rule: pEC50 of at least 7 means MET, below that means NOT MET.

N#CCC(N)c1ccc(-c2nc(N3CC[C@@H]3C(F)(F)F)nc3c2CCC3(F)F)cc1 (some centres unmarked) ... MET
C[C@H]1[C@H](O)CN1c1nc(-c2ccc(OC3CC3)c([S@@](C)(=N)=O)c2)c2c(n1)C(F)(F)CC2 (single isomer, unassigned) ... MET
C[C@H]1CCN1c1nc2c(c(-c3ccc4c(c3)CC(C(=O)O)C4)n1)CCC2 (some centres unmarked) ... NOT MET
NC(=O)c1ccc(-c2nc(N3CCC34CCC4)nc3c2CCC3)cc1 ... NOT MET

**Query** Could you please find out whether C[C@@H]1N(c2nc3c(c(-c4ccc(C(N)=O)cc4)n2)CCC3)C[C@@]1(C)O has pEC50 that meets 7 or exceeds it?
**Result** NOT MET

**Query** Say whether C[C@H]1CCN1c1nc2c(c(-c3ccc(C#N)c(F)c3)n1)CCC2 shows pEC50 of 7 or more.
**Result** NOT MET

**Query** hey, is pEC50 for this one >= 7? NC(=O)c1ccc(-c2nc(N3CC(O)[C@@H]3Cc3ccccc3)nc3c2CCC3)cc1 (some centres unmarked)
**Result** NOT MET

**Query** # bool: pEC50 of C[C@H]1[C@H](O)CN1c1nc(-c2ccc3c(c2)OCC32NC(=O)OC2(C)C)c2c(n1)C(F)(F)CC2 (some centres unmarked) >= 7
**Result** MET

**Query** Check this compound for pEC50 at or above 7: C[C@@H](OCc1ccccc1)[C@H]1C(O)CN1c1nc2c(c(-c3ccc(C(N)=O)cc3)n1)CCC2 (some centres unmarked)
**Result** NOT MET

**Query** # check: pEC50 of C[C@H]1CCN1c1nc2c(c(-c3ccc4oc(N)nc4c3)n1)CCC2 is greater than or equal to 7
**Result** MET

**Query** Threshold query (pEC50 >= 7) on C[C@H]1CCN1c1nc2c(c(-c3ccncc3)n1)CCC2
**Result** NOT MET

**Query** State whether the measured pEC50 reaches 7, counting equality as reaching it, for C[C@H]1[C@H](O)CN1c1nc(-c2ccc3c(c2)OCC32CN(C)C(=O)N2)c2c(n1)C(F)(F)CC2 (some centres unmarked)
**Result** MET

**Query** API: above_or_equal(metric=pEC50, cutoff=7) for item C[C@H]1CCN1c1nc2c(c(-c3cccc(C(C)(C)N)c3)n1)CCC2
**Result** MET

**Query** # bool: pEC50 of C[C@H]1CCN1c1nc2c(c(-c3nc4ccc(C(=O)O)cc4n3C)n1)CCC2 >= 7
**Result** NOT MET

**Query** Hi team, for C[C@H]1CCN1c1nc(-c2ccc(C(N)=O)cc2)c2c(n1)C(F)(F)CC2 , is the recorded pEC50 at or above 7?
**Result** MET

**Query** Hi team, for C[C@H]1CCN1c1nc2c(c(-c3nc4cc(F)ccc4n3C)n1)CCC2 , is the recorded pEC50 at or above 7?
**Result** NOT MET

**Query** Dear colleague, could you confirm whether C[C@H]1CCN1c1nc2c(c(-c3ccc4c(c3)OCC4N)n1)CCC2 (some centres unmarked) has pEC50 at or above 7?
**Result** MET
